# assay_target: T1, Bio-P19 member A2E-14 (chain 2: C-terminal BirA substrate peptide (BSP), enzymatically biotinylated; its letters are not printed in the patent and it is left out)
# T1 construct: also called biotinylated control peptide A2E-14/HLA-A*02:01 monomer
# T1 sequence (b2m, as listed by the source): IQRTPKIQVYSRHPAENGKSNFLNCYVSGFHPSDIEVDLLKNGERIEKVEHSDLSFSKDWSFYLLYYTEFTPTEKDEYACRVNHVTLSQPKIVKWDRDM
# assay_comment: phage ELISA, streptavidin plate, anti-M13-HRP
endpoint: binding result

binder	test_value
PSA146/HLA-A*02:01-specific scFv phage clone #14 (scFv, V domains shown) VH: EVQLVQSGAEVKKPGASVKVSCKASGYTFTGYFMHWVRQAPGQGLEWMGGFDPEDGETIYAQKFQGRVTMTEDTSTDTAYMELSSLRSEDTAVYYCARYSYDLWGQGTLVTVSS VL: QTVVTQEPSLTVSPGGTVTLTCASSTGAVTSGYYPNWFQQKPGQAPRALIYSTSNKHSWTPARFSGSLLGGKAALTLSGVQPEDEAEYYCLLYYGGAQWVFGGGTKLTVLG	no binding
PSA146/HLA-A*02:01-specific scFv phage clone #5 (scFv, V domains shown) VH: QVQLVQSGAEVKKPGDSVKVSCKPSGYNFLNYGINWVRQAPGQGLEWMGWISTYTGNTNYAQKLQGRVTFTTDTSTSTAYMEMRSLRSDDTAVYYCARSSEYYTWDHWGQGTLVTVSS VL: QSVLTQPPSVSGAPGQRVTISCTGSSSNIGAGYDVHWYQQLPGTAPKLLIYGNSNRPSGVPDRFSGSKSGTSASLAITGLQAEDEADYYCQSYDSSLSGWVFGGGTKLTVLG	no binding
